FYI, the data here is from the METLIN SMRT retention time set (Domingo-Almenara et al. 2019).

- test summary: gradient 5% acetonitrile 3 min, to 50% in 2 min, to 85% in 15 min, held 3 min, 100 µL/min
- condition description: column: Zorbax Extend-C18 2.1 x 50 mm; eluents: water / acetonitrile, 0.1% formic acid
Each entry gets NOT MET if its RP-LC retention time stays under 800 s, and MET if its RP-LC retention time is 800 s or above.

>>> label_class("CC(=O)N1N=C(c2ccc(Br)cc2)CC1c1ccc2ncccc2c1 (stereo not given)")
"NOT MET"
>>> label_class("COc1ccccc1N1CCN(c2ccc(-c3nc(-c4ccccc4)no3)cn2)CC1")
"MET"
>>> label_class("COc1cc(C(C)=O)ccc1OCC(O)CN1CCN(c2cccc(C)c2C)CC1 (stereo not given)")
"NOT MET"
>>> label_class("CCc1cccc(C)c1Nc1c(-c2cccc(O)c2)nc2cnccn12")
"NOT MET"
>>> label_class("CCOc1cc(-c2noc(-c3nnn4c3COC(c3ccc(C)cc3C)C4)n2)ccc1OC (stereo not given)")
"MET"
>>> label_class("Cc1cc(C(=O)Nc2ccccc2I)n(-c2ccccc2)n1")
"MET"
>>> label_class("CCOC(=O)c1nn(-c2cc(C(=O)OC)cc(C(=O)OC)c2)cc1O")
"NOT MET"
>>> label_class("Cc1nn(C)c(C)c1CCNC(=O)Nc1ccccc1Br")
"NOT MET"
>>> label_class("COc1ccc(Cl)cc1NC(=O)Cn1c(C)nc(-c2ccccn2)cc1=O")
"NOT MET"
>>> label_class("CCC(=O)N1CCC(Oc2nccnc2N2CCOCC2)C1 (stereo not given)")
"NOT MET"

====

- test summary: gradient 5% acetonitrile 3 min, to 50% in 2 min, to 85% in 15 min, held 3 min, 100 µL/min
- condition description: column: Zorbax Extend-C18 2.1 x 50 mm; eluents: water / acetonitrile, 0.1% formic acid
value kind: RP-LC retention time (s)

>>> val("COc1ccc(-c2nc3ccc(C)cn3c2Nc2ccccc2C)cc1")
761
>>> val("Cc1ccc(-c2nnc(N3CCC(C(=O)NC(C)c4ccc(F)cc4)CC3)o2)cc1 (stereo not given)")
892
>>> val("O=C(NC1CCCCCCC1)C1CCCN(S(=O)(=O)c2c[nH]c(C(=O)N3CCCC3)c2)C1 (stereo not given)")
854
>>> val("COCC(=O)Nc1nc(-c2ccc3c(c2)N(C)C(=O)C(C)O3)cs1 (stereo not given)")
770
>>> val("COc1cccc(-c2ccnc3nc(-c4cccs4)nn23)c1")
906
>>> val("CC(C)Cn1cc(CCNC(=O)c2ccc(F)c(Cl)c2)c2cccnc21")
909
>>> val("CCCN1CCn2cc(C(=O)NCc3ccc(C(C)C)cc3)nc2C1")
665
>>> val("Nc1ncnc2sc3c(c12)CCCC3")
588
>>> val("Cc1ccc(F)c(NC(=O)Nc2ccc(-c3cccc4[nH]nc(N)c34)cc2)c1")
845
>>> val("CCOc1ccc(NC(=O)c2oc3ccccc3c2C)c2cccnc12")
698

====

- test summary: gradient 5% acetonitrile 3 min, to 50% in 2 min, to 85% in 15 min, held 3 min, 100 µL/min
- condition description: column: Zorbax Extend-C18 2.1 x 50 mm; eluents: water / acetonitrile, 0.1% formic acid
value kind: RP-LC retention time (s)

>>> val("Cc1cccc2sc(N(CCN(C)C)C(=O)c3ccc(S(=O)(=O)N(C)C)cc3)nc12")
598
>>> val("CCc1cc(C(=O)Nc2ccc(F)cc2C)nc2ccnn12")
1140
>>> val("COc1ccc2[nH]cc(CCNC(=O)c3cccc(NC(=O)c4nnc(CC(C)C)s4)c3)c2c1")
938
>>> val("CCN(CC)c1ccc(/C=C2\\SC(=O)NC2=O)cc1")
876
>>> val("Cc1ccccc1C(=O)N1C[C@@H]2C[C@H]1C[C@@H]2NS(=O)(=O)c1cccs1")
776
>>> val("Cc1cc(C(=O)NCc2ccco2)c2c(C)nn(-c3ccccc3Cl)c2n1")
860
>>> val("COc1ccc(Nc2c(-c3ccc(N(C)C)cc3)nc3cnccn23)cc1")
740
>>> val("COc1ccc(Nc2c(-c3ccc(C)cc3)nc3ncccn23)cc1OC")
683
>>> val("CCOc1ccc(CNC(=O)c2cn3c(n2)COCC3)cc1")
614
>>> val("COc1ccc(C(=O)OCCN2CCN(C3=NS(=O)(=O)c4ccccc43)CC2)cc1OC")
618
>>> val("Cc1ccccc1CN1CCN(CC(=O)Nc2cccc(Cl)c2C)C(=O)C1=O")
792
>>> val("COC(=O)c1ncn2c1C(=O)N(c1ccc(F)cc1)C(C)(C(=O)NCc1ccccc1)C2 (centres undefined)")
691
>>> val("CC12CCC(C(=O)NCc3ccccc3)(OC1=O)C2(C)C (centres undefined)")
768
>>> val("COc1cccc(NC(=O)C2CCN(S(C)(=O)=O)c3ccccc3O2)c1 (centres undefined)")
810
>>> val("O=C(NCCn1ncccc1=O)c1cccc(C(F)(F)F)c1")
646
>>> val("COC(=O)c1ccc(C(=O)OC)c(NC(=O)N2CCC(CN3CC(C)CC(C)C3)CC2)c1 (centres undefined)")
722
>>> val("O=S(=O)(NCc1nc(-c2ccc(NS(=O)(=O)c3cccs3)cc2)no1)c1ccccc1")
883
>>> val("Cc1c(Cl)cccc1N1C(=O)CN(S(C)(=O)=O)CC1(C)C(=O)NC1CCCCCC1 (centres undefined)")
938
>>> val("O=C(NCc1cccnc1)c1ccc2c(c1)N(CC(=O)N1CCCC1)C(=O)CO2")
619
